target: Human thrombin (Homo sapiens, UniProt P00734); construct: purchased Haematologic Technologies Inc; assay: Inhibition of the protease activity of thrombin (chromogenic substrate S-2238); format: biochemical; settings: inhibition of the protease activity of thrombin

| molecule | IC50 |
| --- | --- |
| O=C(Nc1ccccc1Cl)n1nc(-c2cccnc2)nc1NCc1ccc(F)cc1 [Cmpd 200] | > 1000 nM |
| COc1ccccc1C(=O)n1nc(-c2ccco2)nc1NCc1ccccc1 [Cmpd 280] | < 100 nM |
| O=C(c1ccsc1)n1nc(-c2ccccn2)nc1NCc1ccc(F)cc1 [Cmpd 219] | < 100 nM |
| COc1ccc(C(=O)n2nc(-c3ccccn3)cc2NCc2ccccc2)c(OC)c1 [Cmpd 236] | 100 to 1000 nM |
| COc1cccc(C(=O)n2nc(-c3ccccn3)nc2NCc2ccccc2)c1OC [Cmpd 233] | < 100 nM |
| COc1ccccc1C(=O)n1nc(-c2cccnn2)nc1NCc1ccccc1 [Cmpd 254] | < 100 nM |
| COc1ccccc1C(=O)n1nc(-c2ccncc2)nc1NCc1ccccc1 [Cmpd 257] | < 100 nM |
| O=C(c1ccoc1)n1nc(-c2ccccn2)nc1NCc1ccc(F)cc1 [Cmpd 212] | < 100 nM |
| O=C(Oc1ccccc1)n1nc(-c2cccnc2)nc1NCc1ccc(F)cc1 [Cmpd 298] | < 100 nM |
| O=C(c1cccs1)n1nc(-c2ccncc2)nc1NCc1ccc(F)cc1 [Cmpd 221] | 100 to 1000 nM |
| Cc1ccc(C(=O)n2nc(-c3ccccn3)nc2NCc2ccccc2)c(F)c1 [Cmpd 249] | < 100 nM |
| Cc1ccccc1C(=O)n1nc(-c2ccccn2)nc1NCc1ccccc1 [Cmpd 259] | < 100 nM |
| O=C(c1cccc2c1OCCO2)n1nc(-c2ccccn2)nc1NCc1ccccc1 [Cmpd 232] | < 100 nM |
| CC(=O)c1cn(-c2ccccc2)nc1N(Cc1ccc(F)cc1)C(=O)OC(C)(C)C [Cmpd 302] | > 1000 nM |
| O=C(c1ccccc1Cl)n1nc(-c2ccccn2)cc1NCc1ccccc1 [Cmpd 244] | 100 to 1000 nM |
| O=C(c1ccccc1F)n1nc(-c2ccccn2)cc1NCc1ccccc1 [Cmpd 251] | < 100 nM |
| Cc1c(-c2ccccc2)n[nH]c1N(Cc1ccc(F)cc1)C(=O)C(C)(C)C [Cmpd 218] | > 1000 nM |
| CCNC(=O)n1nc(-c2cccnc2)nc1NCc1ccc(F)cc1 [Cmpd 296] | > 1000 nM |
| O=C(c1cn(-c2ccccn2)nc1NCc1ccc(F)cc1)N1CCCCC1 [Cmpd 225] | > 1000 nM |
| COc1ccc(CNc2nc(-c3ccncc3)nn2C(=O)c2cccs2)cc1 [Cmpd 229] | > 1000 nM |
| O=C(c1ccoc1)n1nc(-c2cccnc2)nc1NCc1ccc(F)cc1 [Cmpd 213] | < 100 nM |
| CCN(C)C(=O)c1cc(-c2ccccn2)n(CCc2ccc(F)cc2)n1 [Cmpd 294] | > 1000 nM |
| O=C(c1cccc2ccccc12)n1nc(-c2ccccn2)cc1NCc1ccccc1 [Cmpd 270] | > 1000 nM |
| O=C(c1ccsc1)n1nc(-c2ccccn2)cc1NCc1ccccc1 [Cmpd 284] | < 100 nM |
| O=C(c1ccoc1)n1nc(-c2ccccn2)nc1NCc1ccccc1 [Cmpd 267] | < 100 nM |
| O=C(c1ccc(Cl)cc1)n1nc(-c2ccccn2)nc1NCc1ccccc1 [Cmpd 262] | < 100 nM |
| O=C(c1ccco1)n1nc(-c2ccncc2)nc1NCc1ccc(F)cc1 [Cmpd 211] | < 100 nM |
| O=C(c1ccsc1)n1nc(-c2ccccn2)nc1NCc1ccccc1 [Cmpd 283] | < 100 nM |
| CCCn1nc(-c2ccccn2)nc1NCc1ccc(F)cc1 [Cmpd 216] | > 1000 nM |
| COc1ccccc1C(=O)n1nc(-c2ccccn2)cc1NCc1ccoc1 [Cmpd 202] | 100 to 1000 nM |
| COc1cc(C)ccc1C(=O)n1nc(-c2ccccc2)nc1NCc1ccc(F)cc1 [Cmpd 205] | 100 to 1000 nM |
| O=C(c1ccc2ccccc2c1)n1nc(-c2ccccn2)cc1NCc1ccccc1 [Cmpd 272] | > 1000 nM |
| O=C(c1ccsc1)n1nc(-c2cccnc2)nc1NCc1ccc(F)cc1 [Cmpd 220] | < 100 nM |
| O=C(c1ccoc1)n1nc(-c2ccncc2)nc1NCc1ccc(F)cc1 [Cmpd 214] | < 100 nM |
| c1ccc(CNc2nc(-c3cccnc3)n[nH]2)cc1 [Cmpd 287] | > 1000 nM |
| O=C(c1ccccc1OC(F)(F)F)n1nc(-c2ccccn2)nc1NCc1ccccc1 [Cmpd 285] | < 100 nM |
| CC(C)OC(=O)n1nc(-c2cccnc2)nc1NCc1ccc(F)cc1 [Cmpd 299] | > 1000 nM |
| COc1ccccc1C(=O)c1cn(-c2ccccc2)nc1N(Cc1ccc(F)cc1)C(=O)OC(C)(C)C [Cmpd 303] | > 1000 nM |

# credit: patent US20170326125A1
